Entry source: patent US8981094B2

tgt: human DGAT1 (Homo sapiens)
Threshold 20 nM. IC50 below it: Fulfilled. IC50 at it or above: Not fulfilled.

>>> label("COc1ccc(CC(=O)Nc2ccc(N3CCN(C(=O)Nc4c(Cl)cc(OC)cc4OC)CC3)cc2)cc1")
"Not fulfilled"
>>> label("Cc1ccc(NCC(=O)Nc2ccc(N3CCN(C(=O)Nc4c(Cl)cccc4Cl)CC3)cc2)c(C)c1")
"Fulfilled"
>>> label("CCCNCC(=O)Nc1ccc(C2CCN(C(=O)Nc3c(Cl)cccc3Cl)CC2)cc1")
"Not fulfilled"
>>> label("O=C(CCN(Cc1ccc(F)cc1)S(=O)(=O)c1ccccc1[N+](=O)[O-])Nc1ccc(N2CCN(C(=O)Nc3c(Cl)cccc3Cl)CC2)cc1")
"Not fulfilled"
>>> label("O=C(CCCc1ccccc1)Nc1ccc(C2CCN(C(=O)Nc3c(Cl)cc(CO)cc3Cl)CC2)cc1")
"Fulfilled"
>>> label("CN(C)CC(=O)Nc1ccc(N2CCN(C(=O)Nc3c(Cl)cccc3Cl)CC2)cc1")
"Not fulfilled"
>>> label("Cc1cccc(NCC(=O)Nc2ccc(C3CCN(C(=O)Nc4c(Cl)cccc4Cl)CC3)cc2)c1")
"Not fulfilled"

* * *

value type: melting point (°C)

>>> recorded_result("O=C(CCCc1ccccc1)Nc1ccc(N2CCN(C(=O)Nc3ccccc3Cl)CC2)cc1")
142.1
>>> recorded_result("CC(O)c1cc(Cl)c(NC(=O)N2CCN(c3ccc(N(C)C(=O)CCCc4ccccc4)cc3)CC2)c(Cl)c1 (stereo not shown)")
179.55
>>> recorded_result("Cc1ccccc1CNC(=O)c1ccc(N2CCN(C(=O)Cc3c(Cl)cccc3Cl)CC2)cc1")
244.09

* * *

tgt: human DGAT1 (Homo sapiens, UniProt O75907)
pIC50: −log10 of the molar value.
Each entry below lists one item and its recorded pIC50 value.
value type: pIC50

>>> recorded_result("O=C(NCc1ccc2c(c1)OCO2)c1ccc(N2CCN(C(=O)Cc3c(Cl)cccc3Cl)CC2)cc1")
7.27
>>> recorded_result("O=C(NCc1cccnc1)c1ccc(N2CCN(C(=O)Cc3c(Cl)cccc3Cl)CC2)cc1")
6.18
>>> recorded_result("COc1ccc(CC(=O)Nc2ccc(N3CCN(C(=O)Nc4c(Cl)cc(C(=O)N5CCN(C)CC5)cc4Cl)CC3)cc2)cc1")
7.61
>>> recorded_result("O=C(CCCc1ccccc1)Nc1ccc(N2CCN(C(=O)Nc3ccccc3)CC2)cc1")
5.51

* * *

Protein target, amino acids: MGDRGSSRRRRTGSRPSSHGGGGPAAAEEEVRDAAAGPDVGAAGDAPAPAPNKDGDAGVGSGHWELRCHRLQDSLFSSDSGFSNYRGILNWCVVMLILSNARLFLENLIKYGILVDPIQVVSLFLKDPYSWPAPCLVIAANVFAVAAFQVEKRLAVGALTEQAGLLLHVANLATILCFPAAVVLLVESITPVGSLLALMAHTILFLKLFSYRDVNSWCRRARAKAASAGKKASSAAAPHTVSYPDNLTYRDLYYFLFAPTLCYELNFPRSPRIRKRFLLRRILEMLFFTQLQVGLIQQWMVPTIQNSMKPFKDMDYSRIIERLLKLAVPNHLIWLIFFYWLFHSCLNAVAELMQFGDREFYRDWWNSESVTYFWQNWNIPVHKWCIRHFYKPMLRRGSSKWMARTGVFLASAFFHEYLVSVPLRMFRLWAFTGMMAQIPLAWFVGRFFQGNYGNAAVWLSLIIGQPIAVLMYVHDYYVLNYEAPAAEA
Each entry below lists one item and its recorded log10(IC50) value.
value type: log10(IC50) (log10 of the value in µM)

>>> recorded_result("CN(CC(=O)Nc1ccc(N2CCN(C(=O)Nc3c(Cl)cccc3Cl)CC2)cc1)C(=O)NC(C)(C)C [Compound 165]")
-1.19
>>> recorded_result("CCCCCCCN(C)CC(=O)Nc1ccc(C2CCN(C(=O)Nc3c(Cl)cccc3Cl)CC2)cc1 [Compound 99]")
-1.59
>>> recorded_result("CN(Cc1ccccc1)C(=O)c1ccc(N2CCN(C(=O)Nc3c(Cl)cc(CN4CCCC4)cc3Cl)CC2)cc1 [Compound 266]")
0.79
>>> recorded_result("O=C(CNc1ccccc1Cl)Nc1ccc(N2CCN(C(=O)Nc3c(Cl)cccc3Cl)CC2)cc1 [Compound 4]")
-2.57
>>> recorded_result("CC(C)(C)OC(=O)CCC(=O)Nc1ccc(N2CCN(C(=O)Nc3c(Cl)cccc3Cl)CC2)cc1 [Compound 279]")
-2.17
>>> recorded_result("CC(=O)NC1(C(=O)Nc2ccc(N3CCN(C(=O)Nc4c(Cl)cccc4Cl)CC3)cc2)CCCC1 [Compound 2]")
0.46
>>> recorded_result("CC(O)c1cc(Cl)c(NC(=O)N2CCN(c3ccc(NC(=O)CCCc4ccccc4)cc3)CC2)c(Cl)c1 (single isomer, unassigned) [Compound 270]")
-2.67

* * *

Each entry below lists one item and its recorded melting point value.
value type: melting point (°C)

>>> recorded_result("CC1CN(CC(=O)Nc2ccc(N3CCN(C(=O)Nc4c(Cl)cccc4Cl)CC3)cc2)CC(C)O1 (stereo not drawn)")
237.1
>>> recorded_result("COCCOCC(=O)Nc1ccc(N2CCN(C(=O)Nc3c(Cl)cccc3Cl)CC2)cc1")
178.7
>>> recorded_result("COc1ccc(CC(=O)Nc2ccc(N3CCN(C(=O)Nc4c(Cl)cc(C(=O)N5CCN(C)CC5)cc4Cl)CC3)cc2)cc1")
253.39
>>> recorded_result("CCc1ccccc1NC(=O)N1CCN(c2ccc(NC(=O)CCCc3ccccc3)cc2)CC1")
189
>>> recorded_result("O=C(CC(=O)OCc1ccccc1)Nc1ccc(N2CCN(C(=O)Nc3c(Cl)cc(CN4CCCC4)cc3Cl)CC2)cc1")
206.22
>>> recorded_result("CC(C)c1ccccc1NC(=O)N1CCN(c2ccc(NC(=O)CCCc3ccccc3)cc2)CC1")
214.2
>>> recorded_result("Cc1cc(Cl)c(CC(=O)N2CCN(c3ccc(C(=O)NCc4cccc(N5CCCC5)c4)cc3)CC2)c(Cl)n1")
172.73
>>> recorded_result("O=C(CCCc1ccccc1)Nc1ccc(N2CCN(C(=O)Nc3c(F)c(F)c(F)c(F)c3F)CC2)cc1")
181.2
>>> recorded_result("O=C(CCCc1ccccc1)Nc1ccc(N2CCN(C(=O)Nc3ccccc3OC(F)(F)F)CC2)cc1")
162.2
>>> recorded_result("Cc1ccccc1NC(=O)N1CCN(c2ccc(NC(=O)CCCc3ccccc3)cc2)CC1")
164.7
>>> recorded_result("COc1ccc(CNC(=O)c2ccc(N3CCN(C(=O)Nc4c(Cl)cc(CN5CCCC5)cc4Cl)CC3)cc2)cc1")
222.04

* * *

Each entry below lists one item and its recorded melting point value.
value type: melting point (°C)

>>> recorded_result("O=C(Nc1ccc(N2CCN(C(=O)Nc3c(Cl)cccc3Cl)CC2)cc1)C(O)CCc1ccccc1 (stereo not shown) [Compound 48]")
253.4
>>> recorded_result("COC(=O)c1ccccc1NC(=O)N1CCN(c2ccc(NC(=O)CCCc3ccccc3)cc2)CC1 [Compound 92]")
165.4
>>> recorded_result("CCOC(=O)c1ccc(CCCCCNC(=O)c2ccc(N3CCN(C(=O)Nc4c(Cl)cc(CN5CCCC5)cc4Cl)CC3)cc2)cc1 [Compound 226]")
180.97
>>> recorded_result("O=C(CCCc1ccccc1)Nc1ccc(N2CCN(C(=O)Nc3c(Cl)cc(Cl)cc3Cl)CC2)cc1 [Compound 59]")
234.9

* * *

value type: melting point

>>> recorded_result("CN(C)CCC(=O)Nc1ccc(N2CCN(C(=O)Nc3c(Cl)cccc3Cl)CC2)cc1")
"194 to 196 °C"
>>> recorded_result("C=CCN(CC(=O)Nc1ccc(N2CCN(C(=O)Nc3c(Cl)cccc3Cl)CC2)cc1)Cc1ccc(F)cc1")
"177.8 °C"
>>> recorded_result("O=C(CNc1ccccc1)Nc1ccc(N2CCN(C(=O)Nc3c(Cl)cccc3Cl)CC2)cc1")
"244 to 246 °C"
>>> recorded_result("COc1ccc(CN(CCC(=O)Nc2ccc(N3CCN(C(=O)Nc4c(Cl)cccc4Cl)CC3)cc2)S(=O)(=O)c2ccccc2[N+](=O)[O-])cc1")
"197 to 199 °C"

* * *

value type: melting point (°C)

>>> recorded_result("O=C(CC1CCCCC1)Nc1ccc(N2CCN(C(=O)Nc3c(Cl)cccc3Cl)CC2)cc1 [Compound 1]")
285.3
>>> recorded_result("O=C(CCCc1ccccc1)Nc1ccc(N2CCN(C(=O)Nc3c(Cl)ccc4c3CCO4)CC2)cc1 [Compound 12]")
209.8
>>> recorded_result("COc1ccc(CC(=O)Nc2ccc(N3CCN(C(=O)Nc4c(Cl)cc(CN5CCCC5)cc4Cl)CC3)cc2)cc1 [Compound 223]")
252.22
>>> recorded_result("CCC(C)c1ccccc1NC(=O)N1CCN(c2ccc(NC(=O)CCCc3ccccc3)cc2)CC1 (stereo not shown) [Compound 86]")
207.8
>>> recorded_result("CC(C)(C)c1ccccc1NC(=O)N1CCN(c2ccc(NC(=O)CCCc3ccccc3)cc2)CC1 [Compound 89]")
227.2
>>> recorded_result("O=C(CCCc1ccccc1)Nc1ccc(N2CCN(C(=O)Nc3c(Cl)cc(O)cc3Cl)CC2)cc1 [Compound 30]")
175.4
>>> recorded_result("CNC(C)c1cc(Cl)c(NC(=O)N2CCN(c3ccc(NC(=O)CCCc4ccccc4)cc3)CC2)c(Cl)c1 (stereo not shown) [Compound 24]")
180.7
